System: HIV-1 subtype A strain 12RU 69831
Assay: Inhibition of HIV-1 reproduction / protection of infected MT-4 cells (living cell concentration, p24 production)
Format: cell-based
Conditions: Human immunodeficiency virus 1, MT4, MT-4 cells infected with HIV-1 at a constant virus dose of 300 CCID50; read-out: Activity against HIV-1 12RU 69831 strain (subtype A)
Description: Evaluation of HIV reproduction inhibition/protection of human cells by anti-HIV products of the present invention was conducted by measuring change in living cells concentration in experimental wells with MT-4 cells infected with HIV-1, as well as by the production of viral protein p24 with adding different concentrations of compounds according to the present invention. […]
pIC50: −log10 of the molar value.
OBSERVATION_TYPE: pIC50

- MOLECULE: "Cc1cc(C#N)cc(C)c1Oc1nc(Nc2ccc(C#N)cc2)nc2c1CCN(C(=O)C1CCNCC1)CC2 [BB0274026]"
  pIC50: 6.44
- MOLECULE: "Cc1cc(C#N)cc(C)c1Oc1nc(Nc2ccc(C#N)cc2)nc2c1CCN(C)C2 [BB0273774]"
  pIC50: 3.65

a: Cc1cc(C#N)cc(C)c1Oc1nc(Nc2ccc(C#N)cc2)nc2c1CCN(C(=O)C1CCCN1C(=O)OC(C)(C)C)CC2 (stereo not drawn) [BB0274063]
b: CC(=O)N1CCc2nc(Nc3ccc(C#N)cc3)nc(Oc3c(C)cc(C#N)cc3C)c2CC1 [BB0274145]
**Q:** Lowest pIC50? choose a or b Response format: the label of the selected entry.
**A:** a

A: Cc1cc(C=O)cc(C)c1Oc1nc(Nc2ccc(C#N)cc2)nc2c1CCN(C)C2 [BB0273775]
B: C#CCOc1ccccc1CN1CCc2nc(Nc3ccc(C#N)cc3)nc(Oc3c(C)cc(C#N)cc3C)c2C1 [BB0274141]
C: Cc1cc(C#N)cc(C)c1Oc1nc(Nc2ccc(C#N)cc2)nc2c1CN(C(=O)c1cnccn1)CC2 [BB0274100]
D: Cc1cc(C#N)cc(C)c1Oc1nc(Nc2ccc(C#N)cc2)nc2c1CN(C(=O)[C@H](N)CO)CC2 [BB0274123]
E: Cc1cc(C#N)cc(C)c1Oc1nc(Nc2ccc(C#N)cc2)nc2c1CN(C(=O)[C@@H](N)CCCCN)CC2 [BB0274131]
**Q:** // smallest pIC50 at index 0, largest at the end Response format: the labels, sorted as the prompt asks.
**A:** A, B, C, D, E
(A: 3.53, B: 3.76, C: 4.47, D: 5.68, E: 6.18)

A: Cc1cc(C#N)cc(C)c1Oc1nc(Nc2ccc(C#N)cc2)nc2c1CN(C(=O)[C@H](Cc1ccccc1)NC(=O)OC(C)(C)C)CC2 [BB0274103]
B: Cc1cc(C#N)cc(C)c1Oc1nc(Nc2ccc(C#N)cc2)nc2c1CN(S(N)(=O)=O)CC2 [BB0274239]
C: Cc1cc(C#N)cc(C)c1Oc1nc(Nc2ccc(C#N)cc2)nc2c1CCN(CCC(=O)O)CC2 [BB0274143]
D: Cc1cc(C#N)cc(C)c1Oc1nc(Nc2ccc(C#N)cc2)nc2c1CCN(C(=O)c1ccncc1)CC2 [BB0274011]
**Q:** # rank_down: sort by pIC50, max first List each label, following the requested order.
**A:** C, D, A, B
